Target: Dual specificity protein phosphatase 6 (Homo sapiens)
Experiment: DUSP6 inhibitors restoring Erk phosphorylation by chemical complementation, primary imaging in DUSP6-transfected HeLa (AID 609);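 also: phospho-Erk level distribution per well compared with pooled transfected vehicle control wells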
Settings: HeLa MKP-3 transfected, phospho-Erk imaging KS statistic; at 10 µM; hits give high values; cells stimulated with TPA for 15 min
READOUT: inhibition (%)
Answers are plain numbers, in %.

Example results:
[[record]]
molecule = "CCOc1ccc(C2C(C#N)=C(N)SC(N)=C2C#N)cc1OC"
reported_value = -3.95

[[record]]
molecule = "O=C(O)c1ccc(OCCn2ccnc2)cc1"
reported_value = 26.5


Hi there! I need inhibition for each item below, if you can.
1. CCN(CC)CCCn1c(C)cc2c(c1=O)C(c1cccc(Cl)c1)C(C#N)=C(N)O2 (centres undefined)
2. Cc1c(C2Nc3ccccc3NC3=C2C(=O)CC(C)(C)C3)cnn1C (centres undefined)
3. Clc1ccc(-c2nn3c(-c4cccc(Cl)c4)nnc3s2)cc1
4. CN1CCN(CC(=O)Nc2nc(-c3ccccc3)cs2)CC1
5. O=C(O)CC(C(=O)N(c1ccccc1)c1ccccc1)N1CCOCC1 (centres undefined)

2.46
14.7
-2.47
0.671
-7.01

For each listed entry, give its inhibition.
1. CC1(C)Cc2c(sc3nc4n(c(=N)c23)CCC4)CO1
2. Cc1cc(C)n(CC(=O)N2c3ccccc3Sc3ccccc32)n1
3. CCOC(=O)CSc1nc2sc3c(c2c(=O)[nH]1)CC(C)(C)OC3
4. CC(C)C1Cc2c(sc3c2c(=O)n(-c2ccccc2)c2nncn32)CO1 (centres undefined)
5. O=C1C(=O)N(CCN2CCOCC2)C(c2ccccn2)/C1=C(/O)c1ccccc1 (centres undefined)

1. -13.9
2. 15.9
3. 7.48
4. 3.56
5. -0.159

I'm hoping you can list inhibition for every molecule here, please.
1. CCCc1nc(N2CCOCC2)c(C#N)c2c1CCCC2
2. Oc1ccccc1CNn1cnnc1
3. CC(C)Oc1ccc2c(=O)c(-c3ccccc3)coc2c1
4. Cc1ccc(C(C)C)c(OCCNc2nc3c(c(=O)n(C)c(=O)n3C)n2C)c1
5. NC(=O)CSc1nc(N)c2c3c(sc2n1)CCCCC3
6. N#CCSc1nc2sc3c(c2c(=O)n1C1CCCCC1)CCCC3

1. 5.35
2. -3.5
3. 10.2
4. -4.27
5. -2.29
6. 3.56
